The reader will find reported half-life values listed item by item below.
- Test system: CYP3A4
- Measurement Description: CYP3A4 metabolism half-life (t1/2)
- Assay Conditions: human
The reply should be a number in min, with the unit left off.

Solved cases (3 shown):
INSERT INTO assay_data (compound, measurement_type, endpoint_value) VALUES
  ('CC(CCCN1C(=O)c2ccccc2C1=O)N1CCN(c2ncc(F)cn2)CC1 (stereo not given)', 'half-life', 18.2),
  ('COc1ccccc1N1CCN(CC(O)CCN2C(=O)CC3(CCCC3)CC2=O)CC1 (stereo not given)', 'half-life', 7.8),
  ('CC(C)(CCN1C(=O)CC2(CCCC2)CC1=O)CN1CCN(c2ncccn2)CC1', 'half-life', 2.9);

Reported half-life, compound CC(CCCN1C(=O)CC(C)(C)CC1=O)N1CCN(c2ncc(F)cn2)CC1 (stereo not given) : ____
40.1

Reported half-life, compound O=C1CC2(CCCC2)CC(=O)N1CCCCN1CCN(c2ccccc2)CC1 : ____
8

====

- Test system: CYP3A4
- Measurement Description: CYP3A4 metabolism half-life (t1/2)
- Assay Conditions: human
The reader will find reported half-life values listed item by item below.
The reply should be a number in min, with the unit left off.

INSERT INTO results (compound, measurement_type, endpoint_value) VALUES
  ('O=C1CC2(CCCC2)CC(=O)N1CCC(O)CN1CCN(c2ccc(F)cc2)CC1 (stereo unspecified)', 'half-life', 3.8),
  ('CC(CCCN1C(=O)CC2(CCCC2)CC1=O)N1CCN(c2ncc(F)cn2)CC1 (stereo unspecified)', 'half-life', 14.8),
  ('COc1ccccc1N1CCN(CCCCN2C(=O)CC3(CCCC3)CC2=O)CC1', 'half-life', 5.1),
  ('O=C1CC2(CCCC2)CC(=O)N1CCCCN1CCN(c2ncc(F)cn2)CC1', 'half-life', 52.3),
  ('O=C1CC2(CCCC2)CC(=O)N1CCC(O)CN1CCN(c2ncccn2)CC1 (stereo unspecified)', 'half-life', 10.2),
  ('CC1(C)CC(=O)N(CCCCN2CCN(c3ncc(F)cn3)CC2)C(=O)C1', 'half-life', 78.3),
  ('CC(CCCN1C(=O)CC2(CCCC2)CC1=O)N1CCN(c2ccc(F)cc2)CC1 (stereo unspecified)', 'half-life', 2.4),
  ('O=C1CC2(CCCC2)CC(=O)N1CCCCN1CCN(c2ccc(F)cc2)CC1', 'half-life', 3.2),
  ('CC(CCCN1C(=O)CC2(CCCC2)CC1=O)N1CCN(c2ncccn2)CC1 (stereo unspecified)', 'half-life', 3.8),
  ('COc1ccc(N2CCN(CCCCN3C(=O)CC4(CCCC4)CC3=O)CC2)cc1', 'half-life', 21.1);

// lookup half-life | system=CYP3A4 | key= CC1(C)CC(=O)N(CCCCN2CCN(c3ncccn3)CC2)C(=O)C1 [GEPIRONE]
30.3

====

The reader will find reported IC50 values listed item by item below.
- Tested Target: UniProt:P08908
- Sequence (P08908 whole entry): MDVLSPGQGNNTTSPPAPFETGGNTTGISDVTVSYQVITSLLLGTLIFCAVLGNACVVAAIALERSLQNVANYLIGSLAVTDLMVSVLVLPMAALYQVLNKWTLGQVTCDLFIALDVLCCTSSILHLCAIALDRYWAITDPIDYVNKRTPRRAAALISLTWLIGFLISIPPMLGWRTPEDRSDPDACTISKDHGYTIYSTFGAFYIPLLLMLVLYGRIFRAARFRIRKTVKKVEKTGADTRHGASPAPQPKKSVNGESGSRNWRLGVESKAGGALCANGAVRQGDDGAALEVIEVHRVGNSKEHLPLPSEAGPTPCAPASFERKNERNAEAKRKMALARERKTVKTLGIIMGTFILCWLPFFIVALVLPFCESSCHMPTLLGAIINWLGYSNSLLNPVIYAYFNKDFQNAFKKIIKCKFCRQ

Solved cases (4 shown):
INSERT INTO assay_data (molecule, measurement_type, endpoint_value) VALUES
  ('O=C1CC2(CCCC2)CC(=O)N1CCCCN1CCN(c2ccccc2)CC1', 'IC50', '15 nM'),
  ('O=C1CC2(CCCC2)CC(=O)N1CCC(O)CN1CCN(c2ncccn2)CC1 (stereo not drawn)', 'IC50', '840 nM'),
  ('O=C1CC2(CCCC2)CC(=O)N1CCC(O)CN1CCN(c2cnccn2)CC1 (stereo not drawn)', 'IC50', '> 1000 nM'),
  ('CC(O)(CCN1C(=O)CC2(CCCC2)CC1=O)CN1CCN(c2ncccn2)CC1 (stereo not drawn)', 'IC50', '1460 nM');

Reported IC50, molecule CC(CCCN1C(=O)CC2(CCCC2)CC1=O)N1CCN(c2ncc(F)cn2)CC1 (stereo not drawn) : ____
46 nM

Reported IC50, molecule CC(CCCN1C(=O)CC2(CCCC2)CC1=O)N1CCN(c2ccc(F)cc2)CC1 (stereo not drawn) : ____
99 nM

Reported IC50, molecule CC(CCCN1C(=O)c2ccccc2C1=O)N1CCN(c2ncc(F)cn2)CC1 (stereo not drawn) : ____
210 nM

Reported IC50, molecule COc1ccc(N2CCN(CCCCN3C(=O)CC4(CCCC4)CC3=O)CC2)cc1 : ____
930 nM

FYI, the data here is from ChEMBL document CHEMBL1148245.
